pIC50 values for the molecules below.
test system: Human LPA1 (Homo sapiens)
test protocol: LPA1 calcium flux assay
conditions: human LPA1 expressing CHO cells; stimulated with 10 nM LPA; read-out: Ca Flux LPA1 IC50
pIC50: −log10 of the molar value.

Worked examples, 4 molecules total:
given smiles: Cc1onc(-c2ccc(-c3ccc(C4(C(=O)O)CC4)cc3)cc2)c1NC(=O)O[C@H](C)c1ccccc1Cl
readout kind: pIC50
recorded measurement: > 7.30

given smiles: Cc1snc(-c2ccc(-c3ccc(C4(C(=O)O)CC4)cc3)cc2)c1NC(=O)O[C@H](C)c1ccccc1Cl
readout kind: pIC50
recorded measurement: 6.30 to 7.30

given smiles: C[C@@H](OC(=O)Nc1scnc1-c1ccc(-c2ccc(C3(C(=O)O)CC3)cc2)cc1)c1ccccc1Cl
readout kind: pIC50
recorded measurement: > 7.30

given smiles: C[C@@H](OC(=O)Nc1c(-c2cc(Cl)c(-c3ccc(C4(C(=O)O)CC4)cc3)cc2F)cnn1C)c1ccccc1
readout kind: pIC50
recorded measurement: > 7.30

Please find the next molecule below.
Item: Cc1noc(-c2ccc3cc(C#CC4(C(=O)O)CC4)ccc3c2)c1NC(=O)O[C@H](C)c1ccccc1 | pIC50: > 7.30

====

test system: Human LPA1 (Homo sapiens)
test protocol: Beta-Arrestin based assay for human LPA1R antagonists (PathHunter)
conditions: CHO cells stably expressing ProLink tagged human LPA1R; agonist LPA 0.5 micromolar
molecules and their reported EC50

Check out these entries, answers already filled in.
given smiles: Cc1nsc(-c2ccc(-c3ccc(C4(C(=O)O)CC4)cn3)cc2)c1NC(=O)O[C@H](C)c1ccccc1Cl
EC50: 0.05 to 0.5 µM

given smiles: Cc1nsc(-c2ccc(-c3ccc(C4(C(=O)O)CC4)cc3)cc2)c1NC(=O)OCc1cccc(F)c1Cl
EC50: 0.05 to 0.5 µM

given smiles: Cc1cc(-c2ccc(C3(C(=O)O)CC3)cc2)c(F)cc1-c1snc(C)c1NC(=O)O[C@H](C)c1ccccc1Cl
EC50: < 0.05 µM

given smiles: Cc1nsc(-c2ccc(-c3ccc(C4(C(=O)O)CC4)cc3)cc2)c1NC(=O)O[C@H](C)c1ccccc1
EC50: < 0.05 µM

given smiles: C[C@@H](OC(=O)Nc1c(-c2ccc(-c3ccc(C4(C(=O)O)CC4)cc3)cc2)oc2nc(C(F)(F)F)ccc12)c1ccccc1
EC50: > 0.5 µM

Input C[C@@H](OC(=O)Nc1c(-c2ccc(-c3ccc(C4(C(=O)O)CC4)cc3)cc2)oc2ccc(F)cc12)c1ccccc1Cl . Output EC50: 0.05 to 0.5 µM

Item: Cc1nsc(-c2ccc(-c3ccc(C4(C(=O)O)CC4)cc3)cc2F)c1NC(=O)O[C@H](C)c1ccccc1 | EC50: < 0.05 µM

Record O=C(Nc1c(-c2ccc(-c3ccc(C4(C(=O)O)CC4)cc3)cc2)oc2cnccc12)OCc1ccccc1 , field EC50: 0.05 to 0.5 µM

====

Listing: EC50 of selected compounds
test system: Human LPA1 (Homo sapiens, UniProt Q92633)
Sequence (Q92633 whole entry): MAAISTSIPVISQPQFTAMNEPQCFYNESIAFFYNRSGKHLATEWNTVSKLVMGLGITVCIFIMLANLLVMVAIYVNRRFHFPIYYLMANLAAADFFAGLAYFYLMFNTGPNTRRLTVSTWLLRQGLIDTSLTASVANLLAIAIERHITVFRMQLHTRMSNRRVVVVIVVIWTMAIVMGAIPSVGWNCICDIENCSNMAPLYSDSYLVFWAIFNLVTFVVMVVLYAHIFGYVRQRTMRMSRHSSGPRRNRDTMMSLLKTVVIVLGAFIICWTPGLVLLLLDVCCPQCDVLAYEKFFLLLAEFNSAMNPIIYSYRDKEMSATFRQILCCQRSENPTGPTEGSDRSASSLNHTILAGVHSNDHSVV
test protocol: Beta-Arrestin based assay for human LPA1R antagonists (PathHunter)
conditions: CHO cells stably expressing ProLink tagged human LPA1R; agonist LPA 0.5 micromolar
Excerpt: Beta-Arrestin Based Assays for Human LPA1R Antagonists and Agonists A CHO cell line stably expressing the ProLink™ tagged human LPA1R was obtained from DiscoverX Inc, Fremont, Calif. […] End point luminescence data were plotted and fit to a 4 parameter logistic function to obtain IC50 values. […]

Sample answers from the record:
compound: Cc1nsc(-c2ccc(-c3ccc(C4(C(=O)O)CC4)cc3)cc2)c1NC(=O)OC(C)C
test system: Human LPA1 (Homo sapiens, UniProt Q92633)
readout kind: EC50
recorded measurement: > 500 nM
--
compound: Cc1nsc(-c2ccc(-c3ccc(C4(C(=O)O)CC4)cc3)cc2)c1NC(=O)OCc1ccc(Cl)cc1Cl
test system: Human LPA1 (Homo sapiens, UniProt Q92633)
readout kind: EC50
recorded measurement: > 500 nM
--
compound: Cc1nsc(-c2cc(F)c(-c3ccc(C4(C(=O)O)CC4)cc3)cc2F)c1NC(=O)O[C@H](C)c1ccccc1
test system: Human LPA1 (Homo sapiens, UniProt Q92633)
readout kind: EC50
recorded measurement: < 50 nM

Hey, Human LPA1 (Homo sapiens, UniProt Q92633) data for Cc1ccc2c(NC(=O)O[C@H](C)c3ccccc3)c(-c3ccc(-c4ccc(C5(C(=O)O)CC5)cc4)cc3)oc2n1 : EC50 came out at > 500 nM

Reading of EC50 for Cc1noc(-c2ccc(-c3ccc(C4(C(=O)O)CC4)cc3)cc2)c1NC(=O)OC1(c2ccccc2)CC1 with Human LPA1 (Homo sapiens, UniProt Q92633): 50 to 500 nM

====

test system: Human LPA3 (Homo sapiens)
Construct: The full-length cDNA fragment for human LPA3 is obtained by PCR from the vector
Sequence (Q9UBY5 whole entry, the tested form may be a part): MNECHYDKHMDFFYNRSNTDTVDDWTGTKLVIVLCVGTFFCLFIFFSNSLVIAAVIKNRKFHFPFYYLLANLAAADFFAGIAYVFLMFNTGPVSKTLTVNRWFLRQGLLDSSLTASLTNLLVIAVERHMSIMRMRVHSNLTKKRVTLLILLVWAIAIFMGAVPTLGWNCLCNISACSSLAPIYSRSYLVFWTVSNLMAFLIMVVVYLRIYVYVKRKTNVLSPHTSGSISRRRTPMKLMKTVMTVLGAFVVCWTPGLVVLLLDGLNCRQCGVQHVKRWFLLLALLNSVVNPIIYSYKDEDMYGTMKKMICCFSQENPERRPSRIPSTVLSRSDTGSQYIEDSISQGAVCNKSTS
test protocol: LPA3 calcium flux assay
conditions: human LPA3 expressing CHO cells; stimulated with 10 nM LPA; read-out: Ca Flux LPA3 IC50
readout kind: IC50

Reference set, count: 2
molecule: Cc1noc(-c2ccc(-c3ccc(C(C(=O)O)c4ccccc4)cc3)cc2)c1NC(=O)O[C@H](C)c1ccccc1Cl (single isomer, unassigned)
recorded measurement: 0.05 to 0.5 µM
//
molecule: C[C@@H](OC(=O)Nc1c(-c2ccc(-c3ccc(C4(C(=O)O)CC4)cc3)cc2)oc2ncccc12)c1ccccc1Cl
recorded measurement: > 0.5 µM

// next entry
Kindly note the recorded IC50 for Cc1nsc(-c2ccc(-c3ccc(CC(=O)O)cc3)cc2)c1NC(=O)O[C@H](C)c1ccccc1Cl , which is > 0.5 µM

====

test system: Human LPA1 (Homo sapiens)
test protocol: Beta-Arrestin based assay for human LPA1R antagonists (PathHunter)
conditions: CHO cells stably expressing ProLink tagged human LPA1R; agonist LPA 0.5 micromolar
pEC50: −log10 of the molar value.
readout kind: pEC50

Answered examples (3):
compound: Cc1nsc(-c2c(F)cc(-c3ccc(C4(C(=O)O)CC4)cc3)cc2F)c1NC(=O)O[C@H](C)c1ccccc1 [Compound 183]
recorded measurement: 6.30 to 7.30

compound: Cc1noc(-c2ccc(-c3ccc(CC(=O)O)c4ccccc34)cc2)c1NC(=O)O[C@H](C)c1ccccc1Cl [Compound 6]
recorded measurement: > 7.30

compound: C[C@@H](NC(=O)OCc1ccccc1)C(=O)N1CCN(c2ccc(CC(=O)O)cc2)CC1 [Compound 273]
recorded measurement: < 6.30

Per the record, CC(C)NC(=O)Nc1ccnc(-c2ccc(-c3ccc(CC(=O)O)cc3)cc2)c1 [reference compound] has pEC50 of < 6.30

====

test system: Human LPA1 (Homo sapiens)
test protocol: Beta-Arrestin based assay for human LPA1R antagonists (PathHunter)
Type: cell-based
Parameters: host or cells: CHO
conditions: CHO cells stably expressing ProLink tagged human LPA1R; agonist LPA 0.5 micromolar
Listing: EC50 of selected molecules

Record excerpt, results attached:
molecule: C[C@@H](OC(=O)Nc1c(-c2ccc(-c3ccc(C4(C(=O)O)CC4)cc3)cc2)ncn1C)c1ccccc1Cl [Compound 168]
recorded measurement: < 50 nM

molecule: Cc1noc(-c2ccc(-c3ccc4c(c3)CCCC4C(=O)O)cc2)c1NC(=O)O[C@H](C)c1ccccc1Cl (stereo partly shown) [Compound 24]
recorded measurement: 50 to 500 nM

molecule: Cc1noc(-c2ccc(-c3ccc(N4CCC[C@@H](C(=O)O)C4)cc3)cc2)c1NC(=O)O[C@H](C)c1ccccc1 [Compound 136]
recorded measurement: 50 to 500 nM

The molecule O=C(O)Cc1ccc(N2CCN(C(=O)[C@@H](Cc3ccccc3)NC(=O)OCc3ccccc3)CC2)cc1 [Compound 266] showed EC50 equal to > 500 nM

// sample C[C@@H](OC(=O)Nc1ncoc1-c1ccc(-c2ccc(C3(C(=O)O)CC3)cc2)cc1)c1ccccc1Cl [Compound 144] , its EC50 was < 50 nM

Lab note: C[C@@H](OC(=O)Nc1cnsc1-c1ccc(-c2ccc(C3(C(=O)O)CC3)cc2)cc1)c1ccccc1Cl [Compound 210] gave EC50 of 50 to 500 nM

For this molecule ( Cc1noc(-c2ccc(-c3ccc(N4CC[C@H](C(=O)O)C4)cc3)cc2)c1NC(=O)O[C@H](C)c1ccccc1Cl [Compound 135] ), measured EC50 is 50 to 500 nM

====

List of EC50 values.
test system: Human LPA1 (Homo sapiens, UniProt Q92633)
test protocol: Beta-Arrestin based assay for human LPA1R antagonists (PathHunter)
conditions: CHO cells stably expressing ProLink tagged human LPA1R; agonist LPA 0.5 micromolar

Use the examples below as a reference point.
compound: Cc1noc(-c2ccc(-c3ccc4c(c3)CCC4C(=O)O)cc2)c1NC(=O)O[C@H](C)c1ccccc1Cl (stereo partly drawn) [Compound 27]
recorded measurement: < 0.05 µM

compound: Cc1noc2cc(-c3ccc(CC(=O)O)cc3)cc(NC(=O)O[C@H](C)c3ccccc3Cl)c12 [Compound 77]
recorded measurement: > 0.5 µM

compound: Cc1noc(-c2ccc3cc(C#CC4(C(=O)O)CC4)ccc3c2)c1NC(=O)O[C@H](C)c1ccccc1Cl [Compound 141]
recorded measurement: < 0.05 µM

compound: Cc1nsc(-c2ccc(-c3ccc(CC(=O)O)cc3Cl)cc2)c1NC(=O)O[C@H](C)c1ccccc1Cl [Compound 190]
recorded measurement: 0.05 to 0.5 µM

compound: Cc1noc(-c2ccc(-c3ccc4c(c3)CCCC4C(=O)O)cc2)c1NC(=O)O[C@H](C)c1ccccc1Cl (stereo partly drawn) [Compound 23]
recorded measurement: 0.05 to 0.5 µM

Entry C[C@@H](OC(=O)Nc1c(-c2ccc(-c3ccc(C4(C(=O)O)CC4)cc3)cc2)cnn1C)c1ccccc1 [Compound 170] , EC50 reported as < 0.05 µM

Recorded EC50 (compound Cc1nsc(C#Cc2ccc(C3(C(=O)O)CC3)cc2)c1NC(=O)O[C@H](C)c1ccccc1 [Compound 82] ): 0.05 to 0.5 µM

Data point: CC(C)n1ncc(-c2ccc(-c3ccc(C4(C(=O)O)CC4)cc3)cc2)c1NC(=O)O[C@H](C)c1ccccc1 [Compound 220] ; EC50 = < 0.05 µM

Record Cc1cc(-c2snc(C)c2NC(=O)O[C@H](C)c2ccccc2Cl)c(Cl)cc1-c1ccc(C2(C(=O)O)CC2)cc1 [Compound 122] . Reported EC50: < 0.05 µM

The compound listed as Cc1noc(-c2ccc3cc(C#CC4(C(=O)O)CC4)ccc3c2)c1NC(=O)O[C@H](C)c1ccccc1 [Compound 140] shows EC50 equal to < 0.05 µM

In plain terms, O=C(O)Cc1ccc(N2CCN(C(=O)CCNC(=O)COc3ccccc3)CC2)cc1 [Compound 265] has a documented EC50 of > 0.5 µM

Data point: C[C@@H](OC(=O)Nc1c(-c2ccc(-c3ccc(C4(C(=O)O)CC4)cc3)cc2)oc2ccccc12)c1ccccc1Cl [Compound 42] ; EC50 = < 0.05 µM

Sure, the documented EC50 for Cc1noc(-c2ccc3c(c2)CCc2cc(C4(C(=O)O)CC4)ccc2-3)c1NC(=O)O[C@H](C)c1ccccc1 [Compound 247] is < 0.05 µM

The value of EC50 measured for the compound C[C@@H](OC(=O)Nc1cnsc1-c1ccc(-c2ccc(C3(C(=O)O)CC3)cc2)cc1)c1ccccc1 [Compound 114] turned out to be < 0.05 µM

Per the record, Cn1cnc(-c2ccc(-c3ccc(C4(C(=O)O)CC4)cc3)cc2)c1NC(=O)OCc1ccccc1 [Compound 167] has EC50 of > 0.5 µM
